These measurements were taken from the supplement of paper PMC7877785.

assay: self-splicing fitness, log relative to wild type (ln ratio); higher = more splicing; Tetrahymena group I intron in knt gene, E. coli kanamycin selection, DiMSum; sequences stand for … in CUCUCU…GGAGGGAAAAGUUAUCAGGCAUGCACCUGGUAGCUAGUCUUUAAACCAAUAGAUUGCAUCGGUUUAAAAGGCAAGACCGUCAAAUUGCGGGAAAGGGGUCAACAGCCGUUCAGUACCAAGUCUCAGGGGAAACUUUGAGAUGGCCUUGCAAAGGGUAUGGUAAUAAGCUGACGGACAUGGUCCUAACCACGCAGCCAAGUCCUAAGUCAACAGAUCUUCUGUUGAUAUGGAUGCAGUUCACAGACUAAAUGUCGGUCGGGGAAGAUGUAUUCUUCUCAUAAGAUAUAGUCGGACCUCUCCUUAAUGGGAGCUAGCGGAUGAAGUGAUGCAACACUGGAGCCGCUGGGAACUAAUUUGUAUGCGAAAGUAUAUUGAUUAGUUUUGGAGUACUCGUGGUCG; settings: 30 °C;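 further: selection with 25 µg/mL kanamycin versus none on LB agar overnight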
Experimental readout: self-splicing fitness (ln)
Answers are plain numbers.

Count: 4. Required value per item: self-splicing fitness (ln).
1. AGUAAGCAAUAUUACGGGCC
2. GAGGAGCAAUAUUACGGAUU
3. GCUUAGCAAUAUUACGUGGA
4. ACGAAGCAAUAUUACGGGAC

-1.48
-3.61
-2.06
-4.36

Count: 4. Required value per item: self-splicing fitness (ln).
1. GAACAGCAAUAUUACGUCUA
2. AAGAAGCAAUAUUACGGAUG
3. AACGAGCAAUAUUACGGAAC
4. UAUUAGCAAUAUUACGAUUG

1: -0.567; 2: -1.8; 3: -2.26; 4: -1.08

Count: 2. Required value per item: self-splicing fitness (ln).
1. GGUCAGCAAUAUUACGUAGA
2. GUACAGCAAUAUUACGCUUG

-0.689
-1.97

Count: 4. Required value per item: self-splicing fitness (ln).
1. GUAAAGCAAUAUUACGAUAG
2. AGGUAGCAAUAUUACGUGGC
3. GCCGAGCAAUAUUACGCACU
4. CUACAGCAAUAUUACGAGAA

-1.08
-3.62
-1.64
-2.84

----------
experiment: self-splicing fitness, log relative to wild type (ln ratio); higher = more splicing; Tetrahymena group I intron in knt gene, E. coli kanamycin selection, DiMSum; sequences stand for … in CUCUCU…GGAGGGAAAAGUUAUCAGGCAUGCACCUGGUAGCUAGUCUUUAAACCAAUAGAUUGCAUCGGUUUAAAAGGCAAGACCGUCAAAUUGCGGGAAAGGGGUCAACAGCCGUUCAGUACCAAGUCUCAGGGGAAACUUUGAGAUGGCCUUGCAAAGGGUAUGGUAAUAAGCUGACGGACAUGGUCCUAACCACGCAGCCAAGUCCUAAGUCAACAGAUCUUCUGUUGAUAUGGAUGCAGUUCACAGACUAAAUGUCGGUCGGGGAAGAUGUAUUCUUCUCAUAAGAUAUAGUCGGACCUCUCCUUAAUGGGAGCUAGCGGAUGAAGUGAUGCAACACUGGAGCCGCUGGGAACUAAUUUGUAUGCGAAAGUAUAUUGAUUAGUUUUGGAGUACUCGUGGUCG; settings: 30 °C
Experimental readout: self-splicing fitness (ln)
Numbers only.

Count: 5. Required value per item: self-splicing fitness (ln).
1. GAGCAGCAAUAUUACGGACC
2. GUAUAGCAAUAUUACGAUGC
3. CCCUAGCAAUAUUACGUCCG
4. GCUUAGCAAUAUUACGGUAC
5. CCCGAGCAAUAUUACGCUGC

1: -0.847; 2: -2.65; 3: -4.17; 4: -1.91; 5: -2.93

Count: 8. Required value per item: self-splicing fitness (ln).
1. GCGUAGCAAUAUUACGAUCA
2. GAGCAGCAAUAUUACGAUGU
3. GAAUAGCAAUAUUACGAGGC
4. UGGUAGCAAUAUUACGGGUC
5. ACUGAGCAAUAUUACGGCGU
6. CUGCAGCAAUAUUACGUAAU
7. CUGCAGCAAUAUUACGACUA
8. GAUUAGCAAUAUUACGACAU

-0.167
-3.19
-3.58
-3.15
-1.07
-4.74
-1.58
-0.469

Count: 4. Required value per item: self-splicing fitness (ln).
1. CGCUAGCAAUAUUACGCCUA
2. UUGGAGCAAUAUUACGAAUG
3. GACAAGCAAUAUUACGAGCU
4. AACUAGCAAUAUUACGUGCC

-2.65
-3.5
-1.28
-1.39
